System: UO-31 renal
assay-text: NCI tumour cell line growth inhibition, 48 h
List of log10(TGI) values.
Values reflect log10 of reported TGI (µM).

Observe how each entry below is paired with its result.
- molecule: "CC1C(NNc2ccccc2)Oc2cc3c(cc2C1c1ccccc1O)OCO3 (configuration not stated)"
  observed-result: 1.04
- molecule: "COc1ccccc1/C=C/C(=O)c1ccccc1"
  observed-result: 1.25
- molecule: "Nc1ccccc1C#C/C=C\\C#Cc1ccccc1"
  observed-result: 1.77
- molecule: "Cc1sc2nc3c4ccccc4c(NCCCN(C)C)nn3c(=O)c2c1C"
  observed-result: 1.22
- molecule: "c1ccc2c(c1)Sc1nccc3ccnc-2c13"
  observed-result: 1.68

Prompt line: Which log10(TGI) value is on record for OC1(c2ccccc2)OC(C#Cc2ccccc2)(c2ccccc2)c2ccccc21 (configuration not stated) ?
Response line: 0.61

Prompt line: For the molecule shown here, COC(=O)C1(CCCCCBr)CCCCCCCCCCC1=O (configuration not stated) , give the reported log10(TGI).
Response line: 1.50

Prompt line: Entry under review: Cc1ccc(-c2csc(NC(=O)CN3CCN(c4cc5c(cc4F)c(=O)c(C(=O)O)cn5C4CC4)CC3)n2)cc1 . Reported log10(TGI)?
Response line: 1.61

Prompt line: Quick one: log10(TGI) for CCCCC1=C(C(=O)N2CCOCC2)C2(OCCO2)C1=O ?
Response line: 1.48

====

Test system: T-47D breast
assay-text: NCI tumour cell line growth inhibition, 48 h
GI50 listing for selected molecules.

Prompt line: Fill in the blank: the reported GI50 of Cc1cc(S(=O)(=O)NC#N)c(S/C(=N\Nc2ccc([N+](=O)[O-])cc2)c2ccc(Cl)cc2)cc1Cl is ____.
Response line: 3.89 µM

Prompt line: Need GI50, item Cc1cc(Cl)ccc1Nc1nc(C(F)(F)F)ccc1C(=O)N/N=C/c1ccc([N+](=O)[O-])cc1
Response line: 2.39 µM

Prompt line: Bench note: what GI50 did COc1cc(S(=O)(=O)Nc2ccc(C(=O)/C=C/c3ccc(O)cc3)cc2)ccc1F show?
Response line: > 100 µM

Prompt line: Fill blank: measured GI50 of the molecule COc1ccc(-c2ccc(-c3ccc(C(=N)N)cn3)o2)cc1 is ____.
Response line: 5.13 µM

Prompt line: I have this molecule here, Cc1cc2c(cc1C)N(C(=O)CCl)CCN2C(=O)CCl , and I need its recorded GI50.
Response line: 1.4 µM

====

Tested on: RPMI-8226 leukemia
assay-text: NCI tumour cell line growth inhibition, 48 h; in the data active = GI50 below about 0.43 µM; inactive = the rest
Use one of these outcomes when replying: true for active, false for inactive

Completed entries (count: 6):
- compound: "CCOc1cccc(/C=N/NC(=O)C(=O)Nc2cccc(C(F)(F)F)c2)c1O"
  subject-of-test: "RPMI-8226 leukemia"
  category: "false"
- compound: "Cc1[nH]nc(C(=O)n2nc(N)c3ccccc32)c1[N+](=O)[O-]"
  subject-of-test: "RPMI-8226 leukemia"
  category: "false"
- compound: "O=C(O)c1ccc2c(c1)CCCC(c1ccc(Cl)cc1Cl)=C2c1ccc(O[C@H]2CCN(CCCF)C2)cc1"
  subject-of-test: "RPMI-8226 leukemia"
  category: "false"
- compound: "CN(C)CCCNC(=O)c1ccc2c(c1)oc1cc3ccccc3c(=O)n12"
  subject-of-test: "RPMI-8226 leukemia"
  category: "false"
- compound: "Cc1cc2c(cc1Cl)SC1=NN(C)C(N(C)C)N1S2(=O)=O (centres undefined)"
  subject-of-test: "RPMI-8226 leukemia"
  category: "false"
- compound: "CC[C@H](Nc1nc(C)nc(N)c1C#N)c1nc2cccc(NCc3ccc(C(=O)NO)cc3)c2c(=O)n1-c1ccccc1"
  subject-of-test: "RPMI-8226 leukemia"
  category: "false"

Prompt line: Which outcome did this test record for the compound NC(N)=NCCC1OC(=O)C2=C1c1c(O)ccc3nccc(c13)O2 (centres undefined) ?
Response line: false

Prompt line: Check the results log: what was the call for COc1cc2c(=O)n(CCN)c3c4cc5c(cc4ccc3c2cc1OC)OCO5 ?
Response line: true

Prompt line: GET /call?item= Cc1ccc(-c2csc(NC(=O)CN3CCN(c4cc5c(cc4F)c(=O)c(C(=O)O)cn5C4CC4)CC3)n2)cc1 returns the recorded outcome of this test.
Response line: true

====

Tested on: MOLT-4 leukemia
assay-text: NCI tumour cell line growth inhibition, 48 h
readout-name: TGI

For orientation, consider the following solved cases.
- molecule: "COc1ccccc1CN=C1Nc2ccncc2S(=O)(=O)N1c1ccccc1"
  readout-name: "TGI"
  observed-result: "> 100 µM"
- molecule: "O=C(OCCN=c1c2ccccc2ccc2ccccc12)c1ccccc1"
  readout-name: "TGI"
  observed-result: "> 100 µM"
- molecule: "O=C1C(c2ccccc2)=[N+]([O-])c2ccccc21"
  readout-name: "TGI"
  observed-result: "47.2 µM"
- molecule: "Nc1nc(Cl)cc(NCC2(O)CC2)n1"
  readout-name: "TGI"
  observed-result: "> 100 µM"
- molecule: "O=C(/C=C/C(=O)N1CCCC1)N1CCCC1"
  readout-name: "TGI"
  observed-result: "> 100 µM"

Moving on to the next compound.
Prompt line: Item Cc1[nH]nc(C(=O)n2nc(N)c3ccccc32)c1[N+](=O)[O-] has what recorded TGI?
Response line: > 100 µM

====

Test system: A498 renal
assay-text: NCI tumour cell line growth inhibition, 48 h
// values below are reported TGI
Dear colleague, please return just the value in µM, with no unit written.

- compound: "C/C(Cl)=N\\OC(=O)Nc1ccc(C)cc1"
  subject-of-test: "A498 renal"
  TGI, µM: 32.9
- compound: "COC(=O)C1=C(C(=O)OC)SC(=CC#CC=C2SC(C(=O)OC)=C(C(=O)OC)S2)S1"
  subject-of-test: "A498 renal"
  TGI, µM: 34.7
- compound: "CCOc1cccc(/C=N/NC(=O)C(=O)Nc2cccc(C(F)(F)F)c2)c1O"
  subject-of-test: "A498 renal"
  TGI, µM: 76.2
- compound: "CCC(CO)Nc1nc(NCc2ccccc2)c2ncn(C(C)C)c2n1 (stereo unspecified)"
  subject-of-test: "A498 renal"
  TGI, µM: 77.3

Prompt line: What TGI value was documented for this compound, COc1cc2c(=O)n(CCN)c3c4cc5c(cc4ccc3c2cc1OC)OCO5 ?
Response line: 2.64

====

Property: TGI; scope: individual compounds
Test system: NCI-H23 lung
assay-text: NCI tumour cell line growth inhibition, 48 h

These solved cases illustrate the format of a correct answer.
- compound: "COc1ccc(Cn2cc3c(c2)-c2oncc2CC3)cc1"
  readout-name: "TGI"
  observed-result: "> 67.5 µM"
- compound: "CC[C@]1(O)C(=O)OCc2c1cc1n(c2=O)Cc2cc3c(N)cccc3nc2-1"
  readout-name: "TGI"
  observed-result: "> 100 µM"
- compound: "CCCCOc1ccc(OCCCCCCCCCC[N+](C)(C)C)cc1"
  readout-name: "TGI"
  observed-result: "11 µM"
- compound: "C/C(CCc1ccccc1)=N\\NC(N)=S"
  readout-name: "TGI"
  observed-result: "> 100 µM"
- compound: "Cc1c(CN2CCN(C)CC2)c(CN2CCN(C)CC2)c(C)n1-c1ccc(Cl)cc1"
  readout-name: "TGI"
  observed-result: "> 100 µM"
- compound: "Cc1cc(S(=O)(=O)/N=C(/C(=C=[N-])C#N)[n+]2ccc(N(C)C)cc2)c(SCC(=O)O)cc1Cl"
  readout-name: "TGI"
  observed-result: "> 100 µM"

Prompt line: // TGI lookup, key: COc1ccccc1C1Nn2c(nc3ccccc3c2=O)N1c1ccc(C)cc1 (centres undefined)
Response line: 29.3 µM

Prompt line: # lookup: TGI of CC[O-].CC[O-].O=S(=O)([O-])c1ccc([O-])c2ncccc12.O=S(=O)([O-])c1ccc([O-])c2ncccc12.[Ti+4]
Response line: > 100 µM

Prompt line: Which value of TGI has been reported for CCCCSc1nsc(N(C(=O)c2ccccc2)C(=O)c2ccccc2)n1 in the records?
Response line: > 100 µM

Prompt line: // query TGI value for entry Fc1cc2[nH]ncc2c2c3c(c(-c4cn[nH]c4C(F)(F)F)nc12)C1CCC3C1 (centres undefined)
Response line: 6 µM

Prompt line: Which TGI value belongs to OCCOCn1nncc1Cn1ncc2c(SCc3ccccc3)ncnc21 ?
Response line: > 100 µM

Prompt line: Param item = CN1CC[C@]2(C)c3ccc(O)cc3CC3CCCC1C32C (some centres undefined) ; retrieve measured TGI.
Response line: > 100 µM

Prompt line: Given the compound CSc1nc(NC(C)C)c2c(n1)Sc1nc3ccccc3n1N=C2 , what is its reported TGI?
Response line: 38.7 µM

Prompt line: Name the recorded TGI for CCc1c(CNc2ccc(C(=O)NC(CC(=O)O)C(=O)O)cc2)ccc2nc(N)nc(N)c12 (centres undefined) .
Response line: > 1000 µM
